Values compiled from patent US11198687B2.

biological target: human α7 nAChR (Homo sapiens); assay: Automated patch-clamp electrophysiology functional assay (Assay A); type: cell-based; settings: IonFlux HT whole-cell population patch; HEK cell line stably expressing human RIC-3 and human α7; 40 μM acetylcholine; read-out: α7 nAChR Potency
PROPERTY_NAME: EC50

>>> print(df.to_string())
                                   molecule  property_name  value_observed
0  CC1(C)[C@@H](c2ccc(S(N)(=O)=O)nc2)[C@@H]1c1nc(-c2ccc(F)cc2F)no1           EC50     0.5 to 5 µM
1  CC1(C)[C@H](c2ccc(S(N)(=O)=O)nc2)[C@H]1c1nc(C2CCCCC2)no1           EC50     0.5 to 5 µM
2  CC1(C)[C@@H](c2ccc(S(N)(=O)=O)cn2)[C@@H]1c1nc(C2CCCC2)no1           EC50   0.1 to 0.5 µM
3  CC1(C)[C@@H](c2ccc(S(N)(=O)=O)cn2)[C@@H]1c1nc(C2CC(F)(F)C2)no1 [Example F12]           EC50     0.5 to 5 µM
4  Cc1nc(S(N)(=O)=O)ccc1[C@@H]1C[C@H]1c1nc(-c2ccccc2)no1 (relative stereo)           EC50     0.5 to 5 µM

Query :: Dear colleague, please send me the reported EC50 for CC1(C)[C@@H](c2nc(C3CC(F)(F)C3)no2)[C@@H]1c1ncc(S(N)(=O)=O)s1 (racemic) when you can.
Result :: 5 to 50 µM

Query :: Identify the reported EC50 for the following entry. CC1(C)[C@@H](c2ccc(S(N)(=O)=O)cn2)[C@@H]1c1nc(C2CCC2)no1 [Example F13]
Result :: 0.5 to 5 µM

Query :: Identify the reported EC50 for the following entry. `CC1(C)[C@H](c2ccc(S(N)(=O)=O)nc2)[C@H]1c1ncc(C2CCCC2)o1`
Result :: 0.5 to 5 µM

* * *

target: UniProtKB P36544; assay: Automated patch-clamp electrophysiology functional assay (Assay A); format: cell-based; details: IonFlux HT whole-cell population patch; HEK cell line stably expressing human RIC-3 and human α7; 40 μM acetylcholine; read-out: α7 nAChR Potency
pEC50: −log10 of the molar value.
PROPERTY_NAME: pEC50

Worked cases, answers included:
In [3]: df
Out[3]:
                                   compound       test_system  value_observed
0  CC(C)(C)c1noc([C@H]2[C@H](c3ccc(S(N)(=O)=O)nc3)C2(C)C)n1  UniProtKB P36544    5.30 to 6.30
1  CC1(C)[C@H](c2ccc(S(N)(=O)=O)nc2)[C@H]1c1nc(C2CCCC2)no1  UniProtKB P36544    5.30 to 6.30
2  CC1(C)C(c2ccc(S(N)(=O)=O)nc2)C1c1cc(-c2cccc(F)c2)no1 (racemic)  UniProtKB P36544    6.30 to 7.00
3  CC(C)c1noc([C@@H]2[C@@H](c3ccc(S(N)(=O)=O)nc3)C2(C)C)n1  UniProtKB P36544    5.30 to 6.30
4  NS(=O)(=O)c1ccc([C@@H]2C[C@H]2c2nc(-c3cccc(F)c3)no2)cn1 (racemic)  UniProtKB P36544    6.30 to 7.00

Query :: Give a short answer stating reported pEC50 for CC1(C)[C@@H](c2ccc(S(N)(=O)=O)nc2)[C@@H]1c1noc(C2CCCCC2)n1 (racemic) .
Result :: 5.30 to 6.30

Query :: Specify reported pEC50 for the compound shown: `CC1(C)[C@H](c2ccc(S(N)(=O)=O)nc2)[C@H]1c1nc(C2CCC2)no1`
Result :: 5.30 to 6.30

Query :: Identify measured pEC50 corresponding to `CC1(C)[C@@H](c2ccc(S(N)(=O)=O)nc2)[C@@H]1c1nc(-c2cccc(F)c2)no1`
Result :: 6.30 to 7.00

* * *

Molecular target: UniProt P36544
Experiment: Automated patch-clamp electrophysiology functional assay (Assay A)
Type: cell-based
Settings: IonFlux HT whole-cell population patch; HEK cell line stably expressing human RIC-3 and human α7; 40 μM acetylcholine; read-out: α7 nAChR EC50
Procedure: The α7 nAChR positive allosteric modulator (PAM) activity of the present compounds may be tested using assays known in the art. […] The assay was performed using the IonFlux HT in a whole-cell, population patch configuration. See Golden et al. Assay Drug Dev. Technol. (2011) 9:608-619. The compounds were assessed for their ability to modulate the function of the human α7 nAChR stably expressed in a HEK cell line both in the presence, and in the absence of the natural α7 agonist acetylcholine. […]
PROPERTY_NAME: log10 of EC50 (log10 of the value in µM)
Heads up, the numbers here are log10 of EC50 in µM units.

Example results:
In [3]: df
Out[3]:
                                   compound  property_name  value_observed
0  CC1(C)[C@@H](c2nc(-c3cncc(F)c3)no2)[C@@H]1c1ncc(S(N)(=O)=O)s1 (racemic)  log10 of EC50            0.20
1  CC1(C)[C@H](c2ccc(S(N)(=O)=O)nc2)[C@H]1c1ncc(C2CCCC2)s1  log10 of EC50           -0.14
2  CC1(C)[C@@H](c2ccc(S(N)(=O)=O)nc2)[C@@H]1c1ncc(C2CCCC2)o1  log10 of EC50           -0.23
3  CC1(C)[C@@H](c2ccc(S(N)(=O)=O)nc2)[C@@H]1c1cc(C2CCCC2)no1 (relative stereo)  log10 of EC50            0.04

Query :: Dear colleague, please send me the reported log10 of EC50 for CC1(C)[C@@H](c2nc(C3CCC3)no2)[C@@H]1c1ncc(S(N)(=O)=O)s1 (racemic) [Example D2] when you can.
Result :: 0.08

Query :: Please give the documented log10 of EC50 of CC1(C)[C@@H](c2ccc(S(N)(=O)=O)nc2)[C@@H]1c1noc(-c2c(F)cccc2F)n1 (racemic)
Result :: 0.08

Query :: Specify reported log10 of EC50 for the compound shown: CC1(C)[C@@H](c2ccc(S(N)(=O)=O)nc2)[C@@H]1c1noc(-c2c(F)ccc(F)c2F)n1 (racemic)
Result :: -0.24

Query :: Give the value of log10 of EC50 reported for the following: `COc1ccc(Cl)cc1-c1noc([C@H]2[C@H](c3ccc(S(N)(=O)=O)nc3)C2(C)C)n1`
Result :: 0.23

Query :: Look up log10 of EC50 of `CC1(C)[C@@H](c2ccc(S(N)(=O)=O)nc2)[C@@H]1c1ncc(-c2ccccc2)o1` and report it.
Result :: 0.18

Query :: Report log10 of EC50, nothing else, for this compound: Cc1nc(S(N)(=O)=O)ccc1[C@@H]1C[C@H]1c1nc(-c2ccccc2)no1 (relative stereo)
Result :: 0.53

* * *

molecular target: human α7 nAChR (Homo sapiens); experiment: Automated patch-clamp electrophysiology functional assay (Assay A); format: cell-based; settings: IonFlux HT whole-cell population patch; HEK cell line stably expressing human RIC-3 and human α7; 40 μM acetylcholine; read-out: α7 nAChR EC50
PROPERTY_NAME: pEC50
Schema: pEC50 number; meaning minus log10 of the concentration expressed in molar units.

>>> df
                                   molecule  property_name  value_observed
0  CC1(C)[C@@H](c2ccc(S(N)(=O)=O)cn2)[C@@H]1c1nc(CC2CC2)no1          pEC50            5.82
1  CC1(C)[C@@H](c2ccc(S(N)(=O)=O)nc2)[C@@H]1c1nc(-c2cccc(C(F)(F)F)c2)no1          pEC50            5.52

Query :: Please report pEC50 with human α7 nAChR (Homo sapiens) for item CC1(C)C(c2ccc(S(N)(=O)=O)nc2)C1c1cc(-c2cccc(F)c2)on1 (single isomer, unassigned) [Example 13] .
Result :: 6.11

* * *

molecular target: human α7 nAChR (Homo sapiens, UniProt P36544); test: Automated patch-clamp electrophysiology functional assay (Assay A); type: cell-based; conditions: IonFlux HT whole-cell population patch; HEK cell line stably expressing human RIC-3 and human α7; 40 μM acetylcholine; read-out: α7 nAChR EC50
Sequence (P36544 23-502): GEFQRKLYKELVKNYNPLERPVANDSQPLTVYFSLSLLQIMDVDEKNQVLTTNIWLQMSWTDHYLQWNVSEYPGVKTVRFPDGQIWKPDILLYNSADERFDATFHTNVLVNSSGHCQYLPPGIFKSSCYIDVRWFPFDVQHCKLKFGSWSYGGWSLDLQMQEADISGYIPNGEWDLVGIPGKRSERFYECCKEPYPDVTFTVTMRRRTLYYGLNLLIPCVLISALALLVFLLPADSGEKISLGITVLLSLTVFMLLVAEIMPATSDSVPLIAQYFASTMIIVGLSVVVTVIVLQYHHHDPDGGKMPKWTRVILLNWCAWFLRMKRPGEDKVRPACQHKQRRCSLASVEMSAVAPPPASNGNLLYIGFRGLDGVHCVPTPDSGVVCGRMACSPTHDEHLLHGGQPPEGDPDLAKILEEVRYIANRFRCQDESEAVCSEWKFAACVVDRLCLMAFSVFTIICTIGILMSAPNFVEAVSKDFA
Let's look at some molecules and their measured pEC50.
Reminder that pEC50 means the negative base-10 logarithm of the concentration expressed in mol/L.

                                chem_smiles  property_name  value_observed
0  CC1(C)[C@@H](c2ccc(S(N)(=O)=O)cn2)[C@@H]1c1nc(C2CCCC2)no1          pEC50            6.47
1  CC1(C)[C@H](c2ccc(S(N)(=O)=O)nc2)[C@H]1c1nc(-c2cccc(F)c2)no1          pEC50            6.19

From here, focus on the item given below.
Query :: For the molecule `CC1(C)[C@H](c2ccc(S(N)(=O)=O)nc2)[C@H]1c1nc(-c2cncc(F)c2)no1` , give its reported pEC50.
Result :: 5.30
